Entries and their measured GI50 follow.
System: COLO 205 colon
Assay: NCI tumour cell line growth inhibition, 48 h
property_name: GI50

> print(dat)
                                   compound  reported.result
1  CCn1cc(C2NC(=O)c3ccccc3N2)c2cccc(C)c21 (stereo not given)         0.485 µM
2  CCOc1cc2ncc(C#N)c(Nc3ccc(F)c(Cl)c3)c2cc1NC(=O)CC1CCSS1 (stereo not given)         0.982 µM
3  COc1ccc(C(=O)N2N=C(c3ccc(Br)cc3)CC2c2cn(-c3ccccc3)nc2-c2ccccc2)cc1 (stereo not given)          > 50 µM
4  COc1cc(/C=C\c2cc(/C=C\c3ccc(O)c(OC)c3)n(C(=O)COc3ccc(Cl)cc3Cl)n2)ccc1O          1.98 µM
5  COc1ccc2cnc(N)c(C#Cc3cc(C(=O)Nc4ccc(CN5CCN(C)CC5)c(C(F)(F)F)c4)cnc3C)c2c1         0.208 µM

----------
Test system: IGROV1 ovarian
Assay: NCI tumour cell line growth inhibition, 48 h
property_name: TGI

> print(dat)
                                    compound  reported.result
 1  Cc1[nH]n(-c2ncc(C#N)c(=O)[nH]2)c(=O)c1CCO         > 100 µM
 2  Cn1ccnc1C(=O)/C=C/c1ccc(C(=O)Nc2ccc(F)cc2)cc1          4.44 µM
 3      Cc1nc2ccccc2c(=O)n1NC(=O)c1ccc(N)cc1         > 100 µM
 4  COC(=O)CCC1(C)C2CCC1/C(=N/O)C2 (stereo not given)         > 100 µM
 5  C/C(=N/NC(=O)c1ccccc1O)c1ccc(/C(C)=N\NC(=O)c2ccccc2O)c2nc3cc(C)c(C)cc3nc12         > 100 µM
 6  C[C@]12CC[C@H](OC3CCCCO3)CC1=CC[C@@H]1C2CC[C@]2(C)/C(=N/OCCC#N)CCC12 (stereo not given in full)         > 100 µM
 7    Cc1cc2nc3[nH]c4c(Cl)cc(Cl)cc4c3nc2cc1C         > 100 µM
 8           CN(C)C(=S)NC(=S)Nc1ccc2ccccc2c1          34.6 µM
 9  COc1cc(Cl)cc(-c2nn(-c3cccc(NC(=O)c4cccc(C(F)(F)F)c4)c3)cc2-c2ccncc2)c1         > 100 µM
10       O=c1cc(NNc2ccc(F)cc2)[nH]c(=O)[nH]1          30.2 µM

----------
Tested on: ACHN renal
Test: NCI tumour cell line growth inhibition, 48 h
Entries and their measured TGI follow.
property_name: TGI

> print(dat)
                                   compound  property.name  reported.result
1          CCCC(=O)OCC(COC(=O)CCC)OC(=O)CCC            TGI         > 100 µM
2  COc1cc(Cl)cc(-c2nn(-c3cccc(NC(=O)c4cccc(C(F)(F)F)c4)c3)cc2-c2ccncc2)c1            TGI         > 100 µM
3  O=C1C2=Cc3ccccc3OC2(O)Oc2cc(O)cc(O)c21 (stereo not given)            TGI         > 100 µM
4  C[C@]12CC[C@H](OC3CCCCO3)CC1=CC[C@@H]1C2CC[C@]2(C)/C(=N/OCCC#N)CCC12 (stereo not given in full)            TGI         > 100 µM
5      CN(C)C=Nc1ccc2c3c(cccc13)-c1ccccc1-2            TGI          31.6 µM

Reference for the values: PubChem BioAssay (NCI)
